- assayed target: p53 Y220C mutant protein (amino acid residues 94-293) (Homo sapiens, UniProt P04637, Y220C)
- Construct: p53 Y220C mutant protein (amino acid residues 94-293)
- assay details: Surface Plasmon Resonance (SPR) assay, Kd_kinetic
- Format: binding
- experimental context: SPR, kinetic KD, p53 Y220C; read-out: SPR P53 Y220C KD kinetic
- Protocol: Surface Plasmon Resonance (SPR) Assay Protocol SPR experiments were performed on a Biacore 8K instrument. […] The running buffer contained 50 mM Tris, pH 7.5, 100 mM NaCl, 1 mM DTT, 0.01% Brij35, 0.05% Tween-20 and 1% DMSO. The assay temperature was maintained at 16 or 20 °C and data were fit into the 1:1 binding model using the Biacore Insight Evaluation software.
pKd: −log10 of the molar value.
measurement label: pKd

Worked examples, 2 compounds total:
1) COc1ccc(C(N)=O)nc1NCC#Cc1nc2c(N[C@@H]3CCN(C)C[C@@H]3F)cccn2c1SC(F)(F)F ... > 8.00
2) CNC(=O)c1ccc(OC)c(NCC#Cc2cc3c(N[C@@H]4CNC[C@@H]4F)nccn3c2SC(F)(F)F)c1 ... > 8.00

The compound listed as CNC(=O)c1ccc(O)c(NCC#Cc2cc3c(N[C@@H]4CCN(C)C[C@@H]4F)nccn3c2SC(F)(F)F)c1 has a reported pKd of > 8.00

The compound listed as COc1cc2c(cc1NCC#Cc1nc3c(N[C@@H]4CCN(C)C[C@@H]4F)cccn3c1SC(F)(F)F)C(=O)NC2 has a reported pKd of > 8.00

The compound listed as CNC(=O)c1ccc(NCC#Cc2nc3c(N[C@@H]4CCN(C)C[C@@H]4F)cccn3c2CC(F)(F)F)c(OC(F)(F)F)c1 has a reported pKd of 7.00 to 8.00

The compound listed as COc1cc(S(C)(=O)=O)ccc1NCC#Cc1nc2c(NC3CCS(=O)(=O)CC3)cccn2c1CC(F)(F)F has a reported pKd of 7.00 to 8.00

The compound listed as CCOc1cc(C(=O)NC)ccc1NCC#Cc1nc2c(N[C@@H]3CCN(C)C[C@@H]3F)cccn2c1SC(F)(F)F has a reported pKd of > 8.00

---

- System: H1299 p53 R273H
- assay details: Cell Proliferation Assay (CellTiter-Glo, CTG), H1299 p53 R273H (NClH1299-inducible p53 R273H)
- Assay type: cell-based
- experimental context: Homo sapiens, NCI-H1299, 120 h, CellTiter-Glo, H1299 p53 R273H, 5 days
We begin with a simple list: items and their reported IC50.

Worked examples, 3 compounds total:
1) CNC(=O)c1ccc(NCC#Cc2nc3c(N[C@@H]4CCN(C)C[C@@H]4F)cccn3c2CC(F)(F)F)cc1 ... ≥ 10 µM
2) COc1cc(S(=O)(=O)C(C)C)ccc1NCC#Cc1nc2c(N[C@@H]3CCN(C)C[C@@H]3F)cccn2c1CC(F)(F)F ... 5 to 8 µM
3) CNC(=O)c1ccc(NCC#Cc2nc3c(N[C@@H]4CCN(C)C[C@@H]4F)cccn3c2NC)c(OC)c1 ... ≥ 10 µM

The compound listed as CNC(=O)c1ccc(NCC#Cc2nc3c(N[C@@H]4CCC(=O)NC4)cccn3c2SC(F)(F)F)c(OC)c1 has a reported IC50 of ≥ 10 µM

The compound listed as CCc1c(C#CCNc2ccc(S(C)(=O)=O)cc2OC)nc2c(N[C@@H]3CCN(C)C[C@@H]3F)cccn12 has a reported IC50 of 8 to 10 µM

The compound listed as CNC(=O)c1ccc(NCC#Cc2nc3c(N[C@@H]4CCN(C)C[C@@H]4F)cccn3c2CC(F)(F)F)c(OCCOC)c1 has a reported IC50 of ≥ 10 µM

The compound listed as CNC(=O)c1cc(NCC#Cc2nc3c(N[C@@H]4CCN(C)C[C@@H]4F)cccn3c2SC(F)(F)F)c(OC)cc1F has a reported IC50 of ≥ 10 µM

---

We begin with a simple list: items and their reported Kd.
- assayed target: p53 Y220C mutant protein (amino acid residues 94-293) (Homo sapiens, UniProt P04637, Y220C)
- Construct: p53 Y220C mutant protein (amino acid residues 94-293)
- assay details: Surface Plasmon Resonance (SPR) assay, Kd_kinetic
- Format: binding
- experimental context: SPR, kinetic KD, p53 Y220C; read-out: SPR P53 Y220C KD kinetic

Worked examples, 3 compounds total:
1) CNC(=O)c1ccc(NCC#Cc2nc3c(N[C@@H]4CCN(C)C[C@@H]4F)cccn3c2CC(F)(F)F)cn1 ... 10 to 100 nM
2) CC#Cc1nn2c(N[C@@H]3CCN(C)C[C@@H]3F)cccc2c1CC(F)(F)F ... 10 to 100 nM
3) CNC(=O)c1ccc(OC)c(NCC#Cc2nn3c(N[C@@H]4CCN(C)C[C@@H]4F)cccc3c2SC(F)F)c1 ... < 10 nM

# next compound below
The compound listed as CNC(=O)c1ccc(N[C@@H](C)C#Cc2nc3c(N[C@@H]4CCN(C)C[C@@H]4F)cccn3c2SC(F)(F)F)c(OC)c1 has a reported Kd of 10 to 100 nM

---

- Tested on: H1299 p53 R273H
- assay details: Cell Proliferation Assay (CellTiter-Glo, CTG), H1299 p53 R273H (NClH1299-inducible p53 R273H)
- Assay type: cell-based
- experimental context: Homo sapiens, NCI-H1299, 120 h, CellTiter-Glo, H1299 p53 R273H, 5 days
pIC50: −log10 of the molar value.
measurement label: pIC50

1. COc1cc(S(=O)(=O)C2CC2)ccc1NCC#Cc1nc2c(N[C@@H]3CCN(C)C[C@@H]3F)cccn2c1SC(F)(F)F ... 5.10 to 5.30
2. CNC(=O)c1ccc(NCC#Cc2nc3c(N[C@@H]4CCn5cncc5C4)cccn3c2SC(F)(F)F)c(OC)c1 ... 5.10 to 5.30
3. CNC(=O)c1ccc(N[C@H](C)C#Cc2nc3c(N[C@@H]4CCN(C)C[C@@H]4F)cccn3c2SC(F)(F)F)c(OC)c1 ... 5.10 to 5.30
4. CNC(=O)c1ccc(NCC#Cc2nc3c(N[C@@H]4CCN(C)C[C@@H]4F)cccn3c2C2CC2)c(OC)c1 ... ≤ 5.00

# next molecule below
Known value: H1299 p53 R273H pIC50 of the molecule CNc1cc(NC2CCN(C)CC2)c2nc(C#CCNc3ccc(S(C)(=O)=O)cc3OC)c(CC(F)(F)F)n2c1 equals ≤ 5.00

---

- assayed target: p53 Y220C mutant protein (amino acid residues 94-293) (Homo sapiens, UniProt P04637, Y220C)
- Construct: p53 Y220C mutant protein (amino acid residues 94-293)
- assay details: Thermal Shift Assay (TSA), dTM
- Assay type: binding
- experimental context: thermal shift, 100 uM compound; read-out: TSA P53 Y220C dTM (100 uM)
We begin with a simple list: items and their reported ΔTm at 100 µM.

Worked examples, 5 compounds total:
1. COc1cc(C(=O)N2CCCC2)ccc1NCC#Cc1nc2c(N[C@@H]3CCN(C)C[C@@H]3F)cccn2c1CC(F)(F)F ... ≥ 10 °C
2. CNc1cc(NC2CCN(C)CC2)c2nc(C#CCNc3ccc(S(C)(=O)=O)cc3OC)c(CC(F)(F)F)n2c1 ... 1 to 5 °C
3. CNC(=O)c1ccc(NCC#Cc2nc3c(N[C@@H]4CCN(C)C[C@@H]4F)nccn3c2SC(F)(F)F)c(OC)c1 ... ≥ 10 °C
4. CNC(=O)c1ccc(OC)c(NCC#Cc2nc3c(N[C@@H]4CNC[C@@H]4F)cccn3c2SC(F)(F)F)n1 ... ≥ 10 °C
5. CC#Cc1nc2c(NC3CCN(C)CC3)cccn2c1CC(F)(F)F ... 5 to 10 °C

The compound listed as CNC(=O)c1ccc(NCC#Cc2nc3c(N[C@@H]4CCN(C)C[C@@H]4F)cccn3c2SC(F)F)c(OC)c1 has a reported ΔTm at 100 µM of ≥ 10 °C

The compound listed as CNC(=O)c1ccc(NCC#Cc2nc3c(N[C@@H]4CCN(C)C[C@@H]4F)cccn3c2C(F)(F)F)c(OC)c1 has a reported ΔTm at 100 µM of 5 to 10 °C

---

- assayed target: p53 Y220C (Homo sapiens, UniProt P04637, Y220C)
- assay details: Luciferase Reporter Assay (Luc), p53 response element, NClH1299 cells with inducible p53 Y220C
- Assay type: cell-based
- experimental context: AC50; luciferase reporter, NClH1299 inducible p53 Y220C, 6 hour; read-out: Luc P53 Y220C AC50
measurement label: AC50

Worked examples, 3 compounds total:
1. O=C(NC[C@H]1COCCO1)c1ccc(NCC#Cc2cc3c(N[C@@H]4CCNC[C@@H]4F)cccn3c2SC(F)(F)F)cc1 ... < 750 nM
2. CNC(=O)c1cc(NCC#Cc2cc3c(N[C@@H]4CCN(C)C[C@@H]4F)cccn3c2SC(F)(F)F)n2ncnc2c1 ... > 3000 nM
3. CCNC(=O)c1ccc(NCC#Cc2nn3c(N[C@@H]4CCN(C)C[C@@H]4F)cccc3c2SC(F)F)c(OC)c1 ... < 750 nM

Known value: p53 Y220C (Homo sapiens, UniProt P04637, Y220C) AC50 of the compound CNC(=O)c1ccc(OC)c(NCC#Cc2cc3c(N[C@@H]4CCNC[C@@H]4F)nccn3c2SC(F)(F)F)n1 equals < 750 nM
